Form field: koff (one value per entry).
# TARGET_ENTITY: T1, human transferrin receptor (recombinant, for surface plasmon resonance) (human, UniProt P02786 89-760)
# T1 construct: also called huTfR; human transferrin receptor-biotinylated
# PROCEDURE_SUMMARY: SPR 25C
MEASURED_ENDPOINT: koff (s⁻¹)

INSERT INTO measurements (binder, measured_endpoint, endpoint_unit, reported_measurement) VALUES
  ('2/99 VH19/VL15 (antibody, V domains shown) VH: QSMQESGPGLVKPSQTLSLTCTVSGFSLSSYAMSWIRQHPGKGLEWIGYIWSGGSTDYAPSLKSRVTISVDTSKNQFSLKLSSVTAADTAVYYCARRYGTSYPDYGDANGFDPWGQGTLVTVSS VL: DIVMTQSPDSLAVSLGERATINCKSSQSISSYLIWYQQKPGQPPKLLIYRASTLASGVPDRFSGSGSGTDFTLTISSLQAEDVAVYYCQQAYSSSNVDNTFGGGTKVEIK', 'koff', 's⁻¹', 0.001),
  ('2/99 VH5/VL8 (antibody, V domains shown) VH: QSMEETGGGLIQPGGSLRLSCAASGFSLSSYAMSWVRQAPGKGLEWVGYIWSGGSTDYADSVKGRFTISRDNSKNTLYLQMNSLRAEDTAVYYCARRYGTSYPDYGDANGFDPWGPGTLVTVSS VL: AYQLTQSPSSLSASVGDRVTITCRASQSISSYLSWYQQKPGKAPKLLIYRASTLASGVPSRFSGSGSGTDFTLTISSLQPEDFATYYCQQSYSSSNVDNTFGGGTKVEIK', 'koff', 's⁻¹', 0.00378);
